Listed here: items and their measured inhibition.
Target: L-2,3-diaminopropanoate--citrate ligase (Staphylococcus aureus (strain NCTC 8325 / PS 47)) (UniProt Q2G1M9)
Assay: Inhibition of Staphylococcus aureus SbnE at 50 uM incubated for 1 hr by malachite green staining based microplate reader analysis relative to control

{"Molecule": "CC(C)C[C@H]([C@H](O)CC(O)C#C[C@@H](C)C[C@@H](C)C[C@@H](C)CO)[C@@H](O)c1cc(O)cc(O)c1 (some centres undefined)", "inhibition / %": 74.7}
{"Molecule": "Cc1ccc(NCC[C@@H](O)[C@@H](CC(C)C)[C@@H](O)c2cc(O)cc(O)c2)c(Cl)c1", "inhibition / %": 89.2}
{"Molecule": "CC(C)C[C@H]([C@H](O)CCN)[C@@H](O)c1cc(O)cc(O)c1", "inhibition / %": 97.2}
{"Molecule": "C=CC[C@@H](O)[C@H](CC(C)C)[C@@H](O)c1cc(O)cc(O)c1", "inhibition / %": 39.5}

---

Measured IC50 accompanies every entry in the list below.
Molecular target: L-2,3-diaminopropanoate--citrate ligase (Staphylococcus aureus (strain NCTC 8325 / PS 47))
Sequence (Q2G1M9 whole entry): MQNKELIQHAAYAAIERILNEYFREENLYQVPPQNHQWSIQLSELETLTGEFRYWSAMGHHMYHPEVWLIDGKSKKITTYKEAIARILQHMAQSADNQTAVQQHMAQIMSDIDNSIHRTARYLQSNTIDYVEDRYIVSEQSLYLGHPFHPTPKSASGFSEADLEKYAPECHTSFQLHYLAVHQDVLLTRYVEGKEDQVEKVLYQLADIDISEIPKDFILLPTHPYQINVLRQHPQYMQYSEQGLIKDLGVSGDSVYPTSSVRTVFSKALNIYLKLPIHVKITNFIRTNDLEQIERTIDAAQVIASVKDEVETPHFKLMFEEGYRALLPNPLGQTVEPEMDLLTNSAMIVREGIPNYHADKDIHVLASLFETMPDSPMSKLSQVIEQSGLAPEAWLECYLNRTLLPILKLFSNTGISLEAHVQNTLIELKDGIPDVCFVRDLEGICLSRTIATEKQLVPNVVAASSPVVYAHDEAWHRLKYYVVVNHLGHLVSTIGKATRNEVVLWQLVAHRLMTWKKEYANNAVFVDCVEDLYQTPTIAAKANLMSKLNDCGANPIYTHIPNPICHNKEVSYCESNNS
Experiment: Inhibition of Staphylococcus aureus SbnE incubated for 1 hr by malachite green staining based microplate reader analysis

{"Compound": "CC(C)C[C@H]([C@H](O)CCNc1cccc(C(F)(F)F)c1)[C@@H](O)c1cc(O)cc(O)c1", "IC50 / µM": 6.12}
{"Compound": "Cc1ccc(NCC[C@H](O)[C@@H](CC(C)C)[C@@H](O)c2cc(O)cc(O)c2)c(Cl)c1", "IC50 / µM": 18.9}
{"Compound": "CC(C)C[C@H]([C@H](O)CC(O)C#C[C@@H](C)C[C@@H](C)C[C@@H](C)CO)[C@@H](O)c1cc(O)cc(O)c1 (some centres not stated)", "IC50 / µM": 6.76}
{"Compound": "CC(C)C[C@H]([C@H](O)C[C@H](O)C#CCCCCCCOCc1ccccc1)[C@@H](O)c1cc(O)cc(O)c1", "IC50 / µM": 10.2}
{"Compound": "Cc1ccc(NCC[C@@H](O)[C@@H](CC(C)C)[C@@H](O)c2cc(O)cc(O)c2)c(Cl)c1", "IC50 / µM": 4.12}
{"Compound": "CCC(=O)[C@H](C)C[C@H](C)C[C@H](C)CC[C@@H](O)C[C@@H](O)[C@@H](CC(C)C)[C@@H](O)c1cc(O)cc(O)c1", "IC50 / µM": 14.4}
{"Compound": "CC(C)C[C@H]([C@H](O)C[C@H](O)C#C[C@@H](C)C[C@@H](C)C[C@@H](C)COCc1ccccc1)[C@@H](O)c1cc(O)cc(O)c1", "IC50 / µM": 11.4}

---

Molecular target: L-2,3-diaminopropanoate--citrate ligase (Staphylococcus aureus (strain NCTC 8325 / PS 47))
Assay: Inhibition of Staphylococcus aureus SbnE incubated for 1 hr by malachite green staining based microplate reader analysis
pIC50: −log10 of the molar value.
We use 5 as the dividing line for pIC50: on or above the line is true (1), below is false (0).

{"Molecule": "CC(C)C[C@@H]([C@H](O)C[C@H](O)CCCCCCCCNCc1ccccc1)[C@@H](O)c1cc(O)cc(O)c1", "Category": "false (0)"}
{"Molecule": "CC(C)C[C@H]([C@H](O)CCNc1ccccc1)[C@@H](O)c1cc(O)cc(O)c1", "Category": "false (0)"}
{"Molecule": "CC(C)C[C@@H]([C@@H](O)C[C@H](O)CC[C@@H](C)C[C@H](C)C[C@@H](C)CO)[C@@H](O)c1cc(O)cc(O)c1", "Category": "false (0)"}
{"Molecule": "CC(C)C[C@@H]([C@H](O)C[C@H](O)C#CCCCCCCOCc1ccccc1)[C@@H](O)c1cc(O)cc(O)c1", "Category": "true (1)"}
{"Molecule": "CCC(O)[C@H](C)C[C@H](C)C[C@H](C)CC[C@@H](O)C[C@@H](O)[C@@H](CC(C)C)[C@@H](O)c1cc(O)cc(O)c1 (stereo partly drawn)", "Category": "false (0)"}
